# tested_system: 5-Lipoxygenase (Rattus norvegicus, UniProt P12527)
# Construct: rat basophilic leukemia cell suspension; endogenous in cells
# Sequence (P12527 1-673): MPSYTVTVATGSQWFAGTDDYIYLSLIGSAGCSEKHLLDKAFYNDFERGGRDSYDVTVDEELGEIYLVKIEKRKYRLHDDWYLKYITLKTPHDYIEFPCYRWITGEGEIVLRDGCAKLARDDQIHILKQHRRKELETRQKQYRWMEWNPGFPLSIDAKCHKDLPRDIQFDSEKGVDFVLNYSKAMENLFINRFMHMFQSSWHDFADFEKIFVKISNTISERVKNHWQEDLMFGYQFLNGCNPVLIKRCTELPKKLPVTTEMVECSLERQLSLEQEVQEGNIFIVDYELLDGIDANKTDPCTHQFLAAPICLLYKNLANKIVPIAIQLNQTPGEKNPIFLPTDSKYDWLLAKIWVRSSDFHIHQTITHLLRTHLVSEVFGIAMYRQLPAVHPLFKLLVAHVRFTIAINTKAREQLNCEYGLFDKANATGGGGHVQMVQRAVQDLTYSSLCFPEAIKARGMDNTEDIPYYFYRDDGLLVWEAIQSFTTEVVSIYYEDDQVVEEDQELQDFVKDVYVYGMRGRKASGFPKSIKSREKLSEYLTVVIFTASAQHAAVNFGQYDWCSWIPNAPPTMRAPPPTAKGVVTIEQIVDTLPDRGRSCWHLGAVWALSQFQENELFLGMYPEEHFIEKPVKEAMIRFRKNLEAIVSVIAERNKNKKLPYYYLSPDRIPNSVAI
# test_name: 5-Lipoxygenase inhibitory activity in rat basophilic leukemia cells
# Type: cell-based
# condition_set: 5-HETE; read-out: 5-Lipoxygenase inhibitory activity, 5-HETE IC50
measurement_kind: IC50 (µM)

Answered examples (3):
| compound | IC50 [µM] |
| --- | --- |
| O=C1c2ccccc2CN1CCCCSc1ccncc1 [Example 109] | 1.4 |
| CCCCCCCCCCCC(=O)NCCCSc1ccncc1 [Example 17, 4-[3-(lauroylamino)propylthio]pyridine] | 17.5 |
| O=c1c2ccccc2n(Cc2ccccc2)c(=O)n1CCCCSc1ccncc1 [Example 149] | 2.3 |

[A] O=C(c1cc2ccccc2s1)N1CCC(Sc2ccncc2)CC1 [Example 133]
[B] O=C1c2ccccc2C(=O)N1CCSc1ccccn1 [Example 4, 2-(2-phthalimidoethylthio)pyridine]
Qu. Identify the entry with the larger IC50. Options: A and B // output: label of the selected item
Ans. B

[I] O=C1SC(=Cc2ccccc2)C(=O)N1CCSc1ccncc1 [Example 155]
[II] O=C(NCCCCSc1ccncc1)c1cc2ccccc2s1 [Example 128]
Qu. // which entry reports the smaller IC50, I or II ? // output: label of the selected item
Ans. I
